target: furin, P09958; experiment: furin cleavage Z-score vs untreated control; higher = more cleavage, active = 3.5 or more, inactive = 1 or less, 8 variable residues between constant flanks; conditions: 7.5 min;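 also: purified furin at 1:10 enzyme:substrate in 50 mM HEPES pH 7.5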
Sequence (P09958 whole entry): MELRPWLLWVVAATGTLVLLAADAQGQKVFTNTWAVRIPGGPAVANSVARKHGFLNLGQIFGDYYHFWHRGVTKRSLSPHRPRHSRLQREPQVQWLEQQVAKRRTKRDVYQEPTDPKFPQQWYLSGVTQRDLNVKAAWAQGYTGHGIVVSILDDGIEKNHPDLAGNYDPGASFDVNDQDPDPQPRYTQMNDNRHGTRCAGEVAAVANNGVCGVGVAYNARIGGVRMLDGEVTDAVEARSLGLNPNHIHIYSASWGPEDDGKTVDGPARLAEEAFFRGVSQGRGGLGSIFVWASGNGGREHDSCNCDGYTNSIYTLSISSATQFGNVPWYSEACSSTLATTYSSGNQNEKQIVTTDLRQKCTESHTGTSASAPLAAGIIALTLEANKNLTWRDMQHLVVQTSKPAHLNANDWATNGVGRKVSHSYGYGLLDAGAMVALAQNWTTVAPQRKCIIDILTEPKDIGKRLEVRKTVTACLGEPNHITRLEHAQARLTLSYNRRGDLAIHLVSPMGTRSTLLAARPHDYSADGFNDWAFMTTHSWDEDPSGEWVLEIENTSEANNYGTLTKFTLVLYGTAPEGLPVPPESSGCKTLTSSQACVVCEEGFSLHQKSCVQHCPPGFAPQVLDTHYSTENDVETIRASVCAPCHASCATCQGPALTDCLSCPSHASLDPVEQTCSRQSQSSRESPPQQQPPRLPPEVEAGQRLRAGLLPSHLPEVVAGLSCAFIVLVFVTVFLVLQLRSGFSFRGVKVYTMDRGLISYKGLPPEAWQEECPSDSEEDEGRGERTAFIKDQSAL
This is one part of the list. The true hit rate is not given.
Result category, one only: TRUE (active), FALSE (inactive)

{"query.sequence": "CASSGRPRRSAGNASASA [FS-507]", "class": "TRUE"}
{"query.sequence": "CALKKRIKSVAGNASASA [FS-2123]", "class": "FALSE"}
{"query.sequence": "CARPVRDDSVAGNASASA [FS-3029]", "class": "FALSE"}

Problem: Please share the test call associated with CAVDSRPRRSAGNASASA [FS-887] .
Result: TRUE
